Consider the following binders and their measured Max Inhib. (projected maximal inhibition at saturating antibody) readings.
# measuredTarget: T1, human CD73 on COR-L23 lung carcinoma cells (human) (UniProt P21589)
# T1 sequence: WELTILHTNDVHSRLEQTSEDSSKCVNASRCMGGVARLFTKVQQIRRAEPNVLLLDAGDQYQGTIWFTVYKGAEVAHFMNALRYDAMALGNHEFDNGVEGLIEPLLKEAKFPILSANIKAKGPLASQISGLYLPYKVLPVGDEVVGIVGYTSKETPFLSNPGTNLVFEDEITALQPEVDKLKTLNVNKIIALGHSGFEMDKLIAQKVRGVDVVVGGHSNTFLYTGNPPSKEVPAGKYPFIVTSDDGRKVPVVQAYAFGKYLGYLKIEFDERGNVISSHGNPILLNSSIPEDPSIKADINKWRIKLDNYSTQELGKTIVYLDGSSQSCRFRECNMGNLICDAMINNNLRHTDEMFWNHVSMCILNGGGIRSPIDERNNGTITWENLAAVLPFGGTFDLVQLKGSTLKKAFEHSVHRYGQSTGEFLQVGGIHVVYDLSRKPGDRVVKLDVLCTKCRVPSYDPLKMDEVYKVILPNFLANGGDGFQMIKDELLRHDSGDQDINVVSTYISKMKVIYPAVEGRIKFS
# test: cell-based or functional assay
Only the number, expressed in %, is required.

Example binders with recorded Max Inhib. (projected maximal inhibition at saturating antibody):
- binder: "CL25/TB19 (bispecific antibody, part only; not given: CL25 arm; constant regions, V domains shown, part only) VH: QEQLQESGPGLVKPSETLSLTCTVSGGSIRNNYYNWIRQPAGKGLEWIGRIYISGTTNSNPSLKSRVTMSIDTSKNQFSLKLSSVTAADTAIYYCAREHYVSGTSLDNWGQGTLVTVSS VL: EIVMTQSPTTLSLSPGERATLSCRASQSVNTNYFSWYQQKPGLTPRLLIYGTSTRATGIPARFSGSGSGTDFTLTISSLQPEDFGIYYCQQDYNLPYTFGQGTYLEIK"
  measurementUnits: "%"
  recordedMeasurement: 97
- binder: "TB19/H7 (bispecific antibody, part only; not given: H7 arm; constant regions, V domains shown, part only) VH: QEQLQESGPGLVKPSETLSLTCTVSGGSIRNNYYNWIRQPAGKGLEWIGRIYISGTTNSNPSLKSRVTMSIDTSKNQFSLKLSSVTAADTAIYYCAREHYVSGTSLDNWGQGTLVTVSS VL: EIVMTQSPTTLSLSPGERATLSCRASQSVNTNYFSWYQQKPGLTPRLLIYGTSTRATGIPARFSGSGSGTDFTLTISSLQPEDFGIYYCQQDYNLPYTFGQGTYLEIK"
  measurementUnits: "%"
  recordedMeasurement: 95

# lookup: Max Inhib. (projected maximal inhibition at saturating antibody) of TB19/TC29 (bispecific antibody, part only; not given: TC29 arm; constant regions, V domains shown, part only) VH: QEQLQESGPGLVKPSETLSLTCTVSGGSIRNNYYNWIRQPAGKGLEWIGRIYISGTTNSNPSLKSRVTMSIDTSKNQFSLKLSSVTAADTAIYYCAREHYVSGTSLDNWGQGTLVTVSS VL: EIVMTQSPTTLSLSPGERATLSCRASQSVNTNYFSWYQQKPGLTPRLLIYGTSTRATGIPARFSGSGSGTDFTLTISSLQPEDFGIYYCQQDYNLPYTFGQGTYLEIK
95
